system: MHH-CALL-2; test: selective drug sensitivity score (sDSS, relative to normal bone marrow) (sDSS (score)); higher = more potent and effective on the cell line relative to normal bone marrow cells; details: 72 h;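 also: ALL cell lines in 384-well plates, five doses spanning 10,000-fold, each plate scaled between vehicle and 100 µmol/L benzalkonium chloride controls, sDSS an adapted area-under-curve metric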
measure.name: selective drug sensitivity score
Numbers only.

CC(C)NC(=O)COc1cccc(-c2nc(Nc3ccc4[nH]ncc4c3)c3ccccc3n2)c1 [KD025] (top concentration 5000 nM) | 3.94
Cn1ncc(Cl)c1-c1cc(C(=O)N[C@H](CN)Cc2cccc(F)c2)sc1Cl [Afuresertib] (top concentration 1000 nM) | 7.36
NC[C@@](O)(c1ccc(Cl)cc1)c1ccc(-c2cn[nH]c2)cc1 (top concentration 10000 nM) | 2.58
COCCNCc1ccc(-c2cc3nccc(Oc4ccc(NC(=S)NC(=O)Cc5ccc(F)cc5)cc4F)c3s2)nc1 [Glesatinib] (top concentration 2500 nM) | 0.94
CCNC(=O)CCC/C=C\C[C@@H]1[C@@H](/C=C/[C@@H](O)CCc2ccccc2)[C@H](O)C[C@@H]1O [Bimatoprost] (top concentration 5500 nM) | 0

I would be grateful if you could provide selective drug sensitivity score for each of the following entries.
1. CS(=O)(=O)c1ccc(C(=O)Nc2ccc(Cl)c(-c3ccccn3)c2)c(Cl)c1 [Vismodegib] (top concentration 10000 nM)
2. CCCOc1ccn2c(C(C)=O)cc(-c3ccccc3S(C)(=O)=O)c2c1 [GSK2801] (top concentration 10000 nM)

**A:**
[2.86, -0.16]
